The origin of these recorded values is paper PMC9495423.

Molecular target: RORγ (Homo sapiens, UniProt P51449)
Construct: also full-length RORγ transcript variant 1
Sequence (P51449 265-507 limits assumed): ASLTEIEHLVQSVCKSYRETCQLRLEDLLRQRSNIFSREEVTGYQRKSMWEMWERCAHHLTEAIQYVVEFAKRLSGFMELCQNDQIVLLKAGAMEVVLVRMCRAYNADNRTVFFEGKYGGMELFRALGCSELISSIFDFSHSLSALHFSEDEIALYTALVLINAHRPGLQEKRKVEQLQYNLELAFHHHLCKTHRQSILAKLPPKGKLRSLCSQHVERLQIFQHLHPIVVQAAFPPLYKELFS
Assay: RORγ-Gal4 luciferase reporter assay in HEK293 cells (inverse agonism); full-length RORγ-RORE assay IC50 […]
Quantity Kind: IC50
Note: a bare number is incomplete; add the unit.

// IC50 lookup, key: C[C@@H]1CC[C@@]2(OC1)O[C@H]1C[C@H]3[C@@H]4CC=C5C[C@@H](O)CC[C@]5(C)[C@H]4CC[C@]3(C)[C@H]1[C@@H]2C 1.73 µM
